Assay: Physico-chemical characterization of LNPs made of different ionizable lipids (DLS, zeta potential)
Assay type: physicochemical
Conditions: mRNA LNPs: ionizable lipid, DSPC, Cholesterol, DMG-PEG 30:18:49.5:2.5 mole ratio

# Substance smiles, Z-ave (hydrodynamic diameter) / nm·days
rows = [
    ("CCCCC/C=C\\C/C=C\\CCCCCCCCN(CCO)CCCCCCCCCCOC(=O)CCCCCCCCCN(CCO)CCCCCCCCCCCC", 197.2),
    ("CCCCC/C=C\\C/C=C\\CCCCCCCCN(CCO)CCCCCCCCCCOC(=O)CCCCCCCCCN(CCO)CCCCCCCCCC(=O)OCCCCCCCCCCN(CCO)CCCCCCCC/C=C\\C/C=C\\CCCCC", 261.9),
    ("CCCCCCCCCCCCN(CCCCCCCCCCCC)CC(=O)ON(CCCCCCCCCCCC)CCCCCCCCCCCC", 72.4),
    ("CCCCCCN(CCCCCC)OC(=O)CCCCCCCCCN(CCO)CCCCCCCCCC(=O)ON(CCCCCC)CCCCCC", 63.9),
    ("CCCCCCCCCCCCN(CCO)CCCCCCCCCC(=O)ON(CCCCCCCCCCCC)CCCCCCCCCCCC", 50.8),
    ("CCCCCCN(CCCCCC)CCOC(=O)CCCCCCCCCN(CCO)CCCCCCCCCC(=O)OCCN(CCCCCC)CCCCCC", 80.3),
    ("CCCCC/C=C\\C/C=C\\CCCCCCCCN(CCO)CCCCCCCCCCOC(=O)CCCCCCCCCN(CCO)CCCCCCCC/C=C\\C/C=C\\CCCCC", 187.3),
    ("CCCCC/C=C\\C/C=C\\CCCCCCCCN(CCO)CCCCCCCCCC(=O)ON(CCCCCCCCCCCC)CCCCCCCCCCCC", 49.2),
    ("CCCCCCCCCCCCN(CCO)CCCCCCCCCCOC(=O)CCCCCCCCCN(CCO)CCCCCCCCCCCC", 188.7),
    ("CCCCC/C=C\\C/C=C\\CCCCCCCCN(CCO)CCCCCCCCCCCOC(=O)CCCCCCCCCN(O)CCCCCCCCCCCC", 164.8),
]
